Answer each item with its documented TGI.
- Test system: A549 NSCLC
- PROTOCOL TEXT: NCI tumour cell line growth inhibition, 48 h

Enter reported TGI observed with A549 NSCLC for COC1=C2C[C@H](O)C(C)C[C@@]2(OC)OC1=O (stereo partly specified)
> 100 µM

Enter reported TGI observed with A549 NSCLC for C=CCCC(On1c(-c2ccc(Cl)cc2)csc1=S)c1ccccc1 (stereo unspecified)
> 100 µM

Enter reported TGI observed with A549 NSCLC for CC(C)=CCCC1(Sc2ccccc2)C(=O)OCC1C=C(C)C (stereo unspecified)
78.1 µM

Enter reported TGI observed with A549 NSCLC for `N/C(=N\N=C\c1cc2c(cc1Cl)OCO2)NO`
> 100 µM

Enter reported TGI observed with A549 NSCLC for CCCCCCCCC(O)C#CC(N)=O (stereo unspecified)
36.2 µM

Enter reported TGI observed with A549 NSCLC for `O=c1oc(-c2ccccc2)cc2cccc(O)c12`
> 64.6 µM

Enter reported TGI observed with A549 NSCLC for `Nc1nc2ccc3[nH]ncc3c2c2c1CCCC2`
13.4 µM

Enter reported TGI observed with A549 NSCLC for O=C1C2=C(CCCCC2)C2CCCCC12O (stereo unspecified)
> 100 µM

Enter reported TGI observed with A549 NSCLC for `N#Cc1ccc(Nc2cnc3ccc(N)cc3n2)cc1`
> 100 µM

Enter reported TGI observed with A549 NSCLC for O=C(NCCCCCCNC(=O)n1cc(F)c(=O)[nH]c1=O)NCCCOCCOCCOCCOCCOCCOCCOCCOCCOCCOCCOCCOCCOCCOCCOCCOCCOCCOCCOCCOCCOCCCNC(=O)C(O)C(O)C(OC1OC(CO)C(O)C(O)C1O)C(O)CO (stereo unspecified)
> 100 µM

Enter reported TGI observed with A549 NSCLC for CC1(C)O[C@H]2OC(CO)C(OS(C)(=O)=O)[C@H]2O1 (stereo partly specified)
> 100 µM
